B1: LINE1-full (parent)
chain: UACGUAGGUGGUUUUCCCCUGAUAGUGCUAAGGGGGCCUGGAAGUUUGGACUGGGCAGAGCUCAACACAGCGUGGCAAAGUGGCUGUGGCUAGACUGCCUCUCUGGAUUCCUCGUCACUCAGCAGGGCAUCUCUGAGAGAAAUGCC

# Variants of: B1
# assay summary: self-cleavage, relative activity (ratio to wild type); higher = more cleavage; in vitro, sequencing; the parent is a self-cleaving ribozyme
result type: self-cleavage

1) G7A G54A ... 0.4
2) U52A A121U ... 1.03
3) A79G U85A ... 0.08
4) A59G G106A ... 0.06
5) G41A A138G ... 1.25
6) C84A U91C ... 0.13
7) A77U A142G ... 1.46
8) U62A U96C ... 0.06
9) U9G U132A ... 0.59
10) U46A G137A ... 0.98
11) U26A G34U ... 0.83
12) G83U A142G ... 0.44
13) U20A G114A ... 1.4
14) A2G A69G ... 0.32
15) A117G A129U ... 1.29
16) U85A U130C ... 0.1
17) U46C A107G ... 1.06
18) A79G U130G ... 2.51
19) G114A A117G ... 1.27
20) A121U A141G ... 1.24
21) G106U ... 1.05
22) U14C U112C ... 1.19

Attribution: the RNAGym collection of RNA variant scans (doi:10.7554/elife.90254)
